// reported pEC50 for each item listed
biological target: recombinant human pancreatic GLK (Homo sapiens); construct: 6-His (N); made in house; host or cells: E. coli BL21; assay: GKH1 variant of GLK enzymatic activity assay (manual bench-top rate assay); type: biochemical; conditions: activation of GLK; 60 nmol/l GLK; rate over 5 minute window; no GLKRP
Sequence (P35557 whole entry): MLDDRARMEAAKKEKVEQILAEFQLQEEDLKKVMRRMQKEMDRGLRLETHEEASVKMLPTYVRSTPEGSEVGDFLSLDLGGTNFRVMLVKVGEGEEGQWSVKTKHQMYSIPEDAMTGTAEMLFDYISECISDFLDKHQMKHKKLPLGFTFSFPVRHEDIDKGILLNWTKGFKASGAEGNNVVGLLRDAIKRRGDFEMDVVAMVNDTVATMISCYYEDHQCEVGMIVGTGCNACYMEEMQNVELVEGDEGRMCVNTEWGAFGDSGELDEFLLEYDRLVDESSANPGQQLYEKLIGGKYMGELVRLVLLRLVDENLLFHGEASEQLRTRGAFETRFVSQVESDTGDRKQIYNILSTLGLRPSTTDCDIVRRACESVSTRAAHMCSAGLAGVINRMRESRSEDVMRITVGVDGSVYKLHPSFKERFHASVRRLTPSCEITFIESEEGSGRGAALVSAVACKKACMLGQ
pEC50: −log10 of the molar value.
value kind: pEC50

• Cc1cnc(NC(=O)c2cc(Oc3ccc(C(=O)N4CCC4)nc3)cc(O[C@@H]3CCN(C)C3=O)c2)cn1 = 5.41
• CN1CC[C@H](Oc2cc(Oc3ccc(C(=O)N4CCC4)nc3)cc(C(=O)Nc3ccccn3)c2)C1=O = 6.37
• Cc1cnc(NC(=O)c2cc(Oc3ccc(C(=O)N4CCC4)nc3)cc(O[C@H]3CCN(C4CCC4)C3=O)c2)cn1 = 6.68
• CN1CC[C@H](Oc2cc(Oc3ccc(C(=O)N4CCC4)nc3)cc(C(=O)Nc3cnccn3)c2)C1=O = 6.52
• Cc1cnc(NC(=O)c2cc(Oc3ccc(C(=O)N4CCC4)nc3)cc(O[C@H]3CCN(C)C3=O)c2)cn1 = 7.05
• Cc1cnc(NC(=O)c2cc(Oc3cnc(C(=O)N(C)C)cn3)cc(O[C@H]3CCN(C)C3=O)c2)cn1 = 6.82
• Cc1cnc(NC(=O)c2cc(Oc3ccc4c(c3)OCCN(C)S4(=O)=O)cc(O[C@H]3CCN(C)C3=O)c2)cn1 = 6.85
• CCN1CC[C@H](Oc2cc(Oc3ccc(C(=O)N4CCC4)nc3)cc(C(=O)Nc3cnc(C)cn3)c2)C1=O = 7.30
• Cc1cnc(NC(=O)c2cc(Oc3ccc4c(c3)OCN(C)C4=O)cc(O[C@H]3CCN(C)C3=O)c2)cn1 = 7.00
• CCN1CC[C@@H](Oc2cc(Oc3ccc(C(=O)N4CCC4)nc3)cc(C(=O)Nc3cnc(C)cn3)c2)C1=O = 5.63
• Cc1cnc(NC(=O)c2cc(Oc3ccc(C(=O)N4CCC4)nc3)cc(O[C@@H]3CCN(C4CCC4)C3=O)c2)cn1 = 6.38
• CN1CC[C@H](Oc2cc(Oc3ccc4c(c3)OCCCS4(=O)=O)cc(C(=O)Nc3cc[nH]n3)c2)C1=O = 7.52
• Cc1cnc(NC(=O)c2cc(Oc3ccc(C(=O)N4CCC4)nc3)cc(O[C@@H]3CCN(C4CC4)C3=O)c2)cn1 = 5.48

The reported measurements were obtained from patent US7902200B2.
